- assay-target: T1, LHRH receptor (LHRHr) (Rattus norvegicus, UniProt P30969)
- T1 chain: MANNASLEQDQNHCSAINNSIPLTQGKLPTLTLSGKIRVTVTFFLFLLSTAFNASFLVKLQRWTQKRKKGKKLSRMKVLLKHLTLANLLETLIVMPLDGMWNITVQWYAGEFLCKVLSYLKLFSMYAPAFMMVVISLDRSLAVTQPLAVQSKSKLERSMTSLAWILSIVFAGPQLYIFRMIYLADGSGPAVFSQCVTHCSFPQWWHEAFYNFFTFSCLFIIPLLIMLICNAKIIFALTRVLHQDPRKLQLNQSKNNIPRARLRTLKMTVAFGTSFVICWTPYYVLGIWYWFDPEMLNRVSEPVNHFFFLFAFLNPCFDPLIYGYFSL
- method: radioligand saturation binding (Scatchard), rat pituitary membranes
No end group written: not given here.
test-readout: Kd (nM)

- binder: "KWKVFKKIEKMGRNIRNGIVKAGPAIAVLGEAKALSYGLRPG (also: 125I-labelled) [Cecropin B-LHRH' (CB-LHRH')]"
  uom: "nM"
  readout-value: 0.253
